Value source: patent US20240109903A1

Test system: K-562
method summary: NCI 60 five-dose screen K-562
Assay type: cell-based
setup conditions: Homo sapiens, K562

{"input smiles": "O=c1ccc(Cn2c(C(F)(F)F)cc3c(Cl)ncnc32)c[nH]1", "value units": "µM", "IC50": 3.39}
{"input smiles": "COc1cc(Cn2c(C(F)(F)F)cc3c(Cl)ncnc32)ccn1", "value units": "µM", "IC50": 2.69}
{"input smiles": "Fc1ccc(N2CC(Cn3c(C(F)(F)F)cc4c(Cl)ncnc43)C2)c(F)c1", "value units": "µM", "IC50": 3.09}

* * *

System: OVCAR-8
method summary: NCI 60 five-dose screen OVCAR-8
Type: cell-based
setup conditions: Homo sapiens, five-dose
pIC50: −log10 of the molar value.
Property: pIC50; scope: individual compounds

{"compound": "OC1CCC(Cn2c(C(F)(F)F)cc3c(Cl)ncnc32)CC1 (centres unmarked)", "pIC50": 5.44}
{"compound": "FC(F)(F)CN1CCN(CCn2c(C(F)(F)F)cc3c(Cl)ncnc32)CC1", "pIC50": 5.35}
{"compound": "FC(F)(F)c1cc2c(Cl)ncnc2n1CCN1CCCCC1", "pIC50": 4.69}
{"compound": "FC(F)(F)c1cc2c(Cl)ncnc2n1CCN1CCOCC1", "pIC50": 4.86}
{"compound": "FC(F)(F)c1cc2c(Cl)ncnc2n1CCC1CCOCC1", "pIC50": 5.44}

* * *

Tested on: UACC-257
method summary: NCI 60 five-dose screen UACC-257
Format: cell-based
setup conditions: Homo sapiens, five-dose
pIC50: −log10 of the molar value.
Property: pIC50; scope: individual compounds

{"compound": "FC(F)(F)c1cc2c(Cl)ncnc2n1CCN1CCCCC1 [NUCC-0226679]", "target or test system": "UACC-257", "pIC50": 4.60}
{"compound": "OC1CCC(Cn2c(C(F)(F)F)cc3c(Cl)ncnc32)CC1 (centres unmarked) [NUCC-0226689]", "target or test system": "UACC-257", "pIC50": 5.11}
{"compound": "FC(F)(F)c1cc2c(Cl)ncnc2n1CCC1CCOCC1 [NUCC-0226674]", "target or test system": "UACC-257", "pIC50": 5.03}
{"compound": "FC(F)(F)CN1CCN(CCn2c(C(F)(F)F)cc3c(Cl)ncnc32)CC1 [NUCC-0226683]", "target or test system": "UACC-257", "pIC50": 4.96}
{"compound": "FC(F)(F)c1cc2c(Cl)ncnc2n1CCN1CCOCC1 [NUCC-0226680]", "target or test system": "UACC-257", "pIC50": 4.63}

* * *

System: NCI-H23
method summary: NCI 60 five-dose screen NCI-H23
Assay type: cell-based
setup conditions: Homo sapiens, five-dose
Property: GI50; scope: individual compounds

{"compound": "FC(F)(F)CN1CCN(CCn2c(C(F)(F)F)cc3c(Cl)ncnc32)CC1", "target or test system": "NCI-H23", "GI50 [µM]": 5.89}
{"compound": "FC(F)(F)c1cc2c(Cl)ncnc2n1CCC1CCOCC1", "target or test system": "NCI-H23", "GI50 [µM]": 2.57}
{"compound": "OC1CCC(Cn2c(C(F)(F)F)cc3c(Cl)ncnc32)CC1 (centres unmarked)", "target or test system": "NCI-H23", "GI50 [µM]": 3.09}
{"compound": "FC(F)(F)c1cc2c(Cl)ncnc2n1CCN1CCOCC1", "target or test system": "NCI-H23", "GI50 [µM]": 17.8}
{"compound": "FC(F)(F)c1cc2c(Cl)ncnc2n1CCN1CCCCC1", "target or test system": "NCI-H23", "GI50 [µM]": 13.8}
